Biological target: T1, N6 (synthetic construct, N-terminal acetylation; C-terminal amidation)
T1 chain: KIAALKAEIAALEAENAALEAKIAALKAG
Experiment: ITC
Parameter: pKd
// pKd: -log10(molar conc.)

-- ask Reported pKd for Ac-GEIAALEAKIAALKAKNAALKAEIAALEAGY-NH2 [N5] : what is it?
-- reply 9.00
